# credit: ChEMBL document CHEMBL1201861

Items are presented alongside their recorded pIC50.
Tested on: NCI-H1563;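 further: growth inhibition of human NCI-H1563 cells, read out with a cell viability assay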
Assay: cells
Assay type: functional, cell-based
Settings: Homo sapiens
Description: SANGER: Inhibition of human NCI-H1563 cell growth in a cell viability assay.
pIC50: −log10 of the molar value.

Example cases with answers are listed next.
Entry C[C@]1(c2nc3c(C(N)=O)cccc3[nH]2)CCCN1 needs its pIC50 filled in; supply it.
< 5.30

Entry N#C/C(=C1/Nc2ccccc2S1)c1ccnc(NCCc2cccnc2)n1 needs its pIC50 filled in; supply it.
< 5.10

Kindly review the next compound as well.
Entry C/C(O)=C(\C#N)C(=O)Nc1cc(Br)ccc1Br needs its pIC50 filled in; supply it.
< 4.80

* * *

Test system: L-363
Assay: cells
Type: functional, cell-based
Conditions: Homo sapiens
Description: SANGER: Inhibition of human L-363 cell growth in a cell viability assay.
pIC50: −log10 of the molar value.
RECORDED_ENDPOINT: pIC50

Example cases with answers are listed next.
Entry CCCS(=O)(=O)Nc1ccc(F)c(C(=O)c2c[nH]c3ncc(Cl)cc23)c1F [PLX-4720] needs its pIC50 filled in; supply it.
< 5.00

Entry Cc1nc(Nc2ncc(C(=O)Nc3c(C)cccc3Cl)s2)cc(N2CCN(CCO)CC2)n1 [DASATINIB] needs its pIC50 filled in; supply it.
< 5.89

Kindly review the next compound as well.
Entry N#C/C(=C1/Nc2ccccc2S1)c1ccnc(NCCc2cccnc2)n1 needs its pIC50 filled in; supply it.
< 5.10

* * *

Items are presented alongside their recorded IC50.
Tested on: NCI-H2052
Assay: cells
Format: functional, cell-based
Conditions: Homo sapiens
Description: SANGER: Inhibition of human NCI-H2052 cell growth in a cell viability assay.

Example cases with answers are listed next.
Entry COc1cc(Nc2c(C#N)cnc3cc(OCCCN4CCN(C)CC4)c(OC)cc23)c(Cl)cc1Cl needs its IC50 filled in; supply it.
> 2000 nM

Entry Cn1cc(/C=C2\C(=O)Nc3cccnc32)c2ccccc21 needs its IC50 filled in; supply it.
> 2000 nM

Entry O=c1cc(N2CCOCC2)oc2c(-c3cccc4c3sc3ccccc34)cccc12 needs its IC50 filled in; supply it.
> 2000 nM

Kindly review the next compound as well.
Entry CCCS(=O)(=O)Nc1ccc(F)c(C(=O)c2c[nH]c3ncc(Cl)cc23)c1F needs its IC50 filled in; supply it.
> 10000 nM

* * *

Test system: LoVo
Assay: cells
Assay type: functional, cell-based
Conditions: Homo sapiens
Description: SANGER: Inhibition of human LoVo cell growth in a cell viability assay.
RECORDED_ENDPOINT: IC50

Example cases with answers are listed next.
Entry CC(=O)c1c(C)c2cnc(Nc3ccc(N4CCNCC4)cn3)nc2n(C2CCCC2)c1=O needs its IC50 filled in; supply it.
> 4 µM

Entry O=c1[nH]c2ccccc2n1C1CCN(Cc2ccc(-c3nc4cc5[nH]cnc5cc4nc3-c3ccccc3)cc2)CC1 needs its IC50 filled in; supply it.
> 2.56 µM

Entry C[C@]1(c2nc3c(C(N)=O)cccc3[nH]2)CCCN1 needs its IC50 filled in; supply it.
> 5 µM

Kindly review the next compound as well.
Entry Cn1cc(/C=C2\C(=O)Nc3cccnc32)c2ccccc21 needs its IC50 filled in; supply it.
> 2 µM

* * *

System: GT3TKB
Test: cells
Type: functional, cell-based
Conditions: Homo sapiens
Description: SANGER: Inhibition of human GT3TKB cell growth in a cell viability assay.
pIC50: −log10 of the molar value.
Items are presented alongside their recorded pIC50.

Example cases with answers are listed next.
Entry C/C(O)=C(\C#N)C(=O)Nc1cc(Br)ccc1Br needs its pIC50 filled in; supply it.
< 4.80

Entry Cc1[nH]c(/C=C2\C(=O)Nc3ccc(S(=O)(=O)Cc4c(Cl)cccc4Cl)cc32)c(C)c1C(=O)N1CCC[C@@H]1CN1CCCC1 needs its pIC50 filled in; supply it.
< 5.70

Further cases:
Entry Cn1cc(/C=C2\C(=O)Nc3cccnc32)c2ccccc21 needs its pIC50 filled in; supply it.
< 5.70

Entry CC(O)(CS(=O)(=O)c1ccc(F)cc1)C(=O)Nc1ccc(C#N)c(C(F)(F)F)c1 (configuration not stated) [BICALUTAMIDE] needs its pIC50 filled in; supply it.
< 5.99
